B1: TOR1AIP2 (parent)
chain: HHVADAYTSSQKVSPIQIDGAGRT

Variants of: B1
run.description: protein stability index of a GFP-peptide fusion (GPS, HEK-293T) (PSI 1-6); higher = more stable;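 note: lentivirally expressed fusions sorted by FACS into six bins by GFP to DsRed ratio, PSI derived from sequencing read proportions per bin multiplied by bin number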
condition.summary: c terminus: a fixed tail appended
Rule: protein stability index under 3 gives -1, otherwise 1.

INSERT INTO assay_data (sequence_data, assigned_label) VALUES
  ('AHVADAYTSSQKVSPIQIDGAGRT [H1A]', 1),
  ('HHVADAYTSSQKVYPIQIDGAGRT [S14Y]', -1),
  ('HHVADAYTSSQKVSPIQIDGIGRT [A21I]', 1),
  ('HHVADAYTSGQKVSPIQIDGAGRT [S10G]', 1),
  ('HHVADAYTSSQKRSPIQIDGAGRT [V13R]', 1);

hey, is protein stability index for this one >= 3? HHVADAYTSSMKVSPIQIDGAGRT [Q11M]
1

hey, is protein stability index for this one >= 3? HHVFDAYTSSQKVSPIQIDGAGRT [A4F]
1

hey, is protein stability index for this one >= 3? HHVADAYTSSQLVSPIQIDGAGRT [K12L]
1
